run.description: Toxicity in ip dosed Swiss-Webster mouse after 24 hrs
Type: organism-based
experimental.conditions: in vivo
// LD50 at 24 h lookup, one value per entry
Only the number, expressed in mg/kg, is required.

CC(=O)N1CCN(C)C1=S : 40

Exercise: Could you share which LD50 at 24 h value was measured for COC(=O)N1CCN(C)C1=S ?
Key: 25

----------
run.description: Toxicity in ip dosed Swiss-Webster mouse after 24 hrs
Type: organism-based
experimental.conditions: in vivo
value.kind: LD50 at 24 h

Please review the entries below; each comes with its answer.
COC(=O)N1CCN=C1SC : > 1000 mg/kg
COC(=O)N1CCN=C1SCC(=O)c1ccccc1 : > 1000 mg/kg

Exercise: Please report the recorded LD50 at 24 h for CSC1=NCCN1C(C)=O .
Key: > 1000 mg/kg
